Here the recorded self-cleavage is given for each entry.
B1: CPEB3 Ribozyme (parent)
chain: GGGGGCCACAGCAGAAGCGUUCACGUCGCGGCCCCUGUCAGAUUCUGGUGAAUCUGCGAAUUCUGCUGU

# Variants of: B1
# ASSAY_DETAILS: self-cleavage, relative activity (ratio to wild type); higher = more cleavage; co-transcriptional
No unit in the answer, only the number.

Observe how each entry below is paired with its result.
{"CHANGES": "A15G G30C", "self-cleavage": 0.618}
{"CHANGES": "G37A U62G", "self-cleavage": 0.318}
{"CHANGES": "U49A U67C", "self-cleavage": 0.99}
{"CHANGES": "G30U G50A", "self-cleavage": 0.335}
{"CHANGES": "C35G U55A", "self-cleavage": 0.267}
{"CHANGES": "C12A C35G", "self-cleavage": 0.189}
{"CHANGES": "G50A G56U", "self-cleavage": 0.905}
{"CHANGES": "A60U U61A", "self-cleavage": 0.623}
{"CHANGES": "G14A U61G", "self-cleavage": 0.414}
{"CHANGES": "G28A A52U", "self-cleavage": 0.276}

Incoming: Report self-cleavage for A16G C24A please.
Outgoing: 0.481

Incoming: Look up self-cleavage for this variant: G56U G68C
Outgoing: 0.963
